- tested.on: Sucrase-isomaltase, intestinal (Rattus norvegicus, UniProt P23739)
- Sequence (P23739 1-1013 limits assumed): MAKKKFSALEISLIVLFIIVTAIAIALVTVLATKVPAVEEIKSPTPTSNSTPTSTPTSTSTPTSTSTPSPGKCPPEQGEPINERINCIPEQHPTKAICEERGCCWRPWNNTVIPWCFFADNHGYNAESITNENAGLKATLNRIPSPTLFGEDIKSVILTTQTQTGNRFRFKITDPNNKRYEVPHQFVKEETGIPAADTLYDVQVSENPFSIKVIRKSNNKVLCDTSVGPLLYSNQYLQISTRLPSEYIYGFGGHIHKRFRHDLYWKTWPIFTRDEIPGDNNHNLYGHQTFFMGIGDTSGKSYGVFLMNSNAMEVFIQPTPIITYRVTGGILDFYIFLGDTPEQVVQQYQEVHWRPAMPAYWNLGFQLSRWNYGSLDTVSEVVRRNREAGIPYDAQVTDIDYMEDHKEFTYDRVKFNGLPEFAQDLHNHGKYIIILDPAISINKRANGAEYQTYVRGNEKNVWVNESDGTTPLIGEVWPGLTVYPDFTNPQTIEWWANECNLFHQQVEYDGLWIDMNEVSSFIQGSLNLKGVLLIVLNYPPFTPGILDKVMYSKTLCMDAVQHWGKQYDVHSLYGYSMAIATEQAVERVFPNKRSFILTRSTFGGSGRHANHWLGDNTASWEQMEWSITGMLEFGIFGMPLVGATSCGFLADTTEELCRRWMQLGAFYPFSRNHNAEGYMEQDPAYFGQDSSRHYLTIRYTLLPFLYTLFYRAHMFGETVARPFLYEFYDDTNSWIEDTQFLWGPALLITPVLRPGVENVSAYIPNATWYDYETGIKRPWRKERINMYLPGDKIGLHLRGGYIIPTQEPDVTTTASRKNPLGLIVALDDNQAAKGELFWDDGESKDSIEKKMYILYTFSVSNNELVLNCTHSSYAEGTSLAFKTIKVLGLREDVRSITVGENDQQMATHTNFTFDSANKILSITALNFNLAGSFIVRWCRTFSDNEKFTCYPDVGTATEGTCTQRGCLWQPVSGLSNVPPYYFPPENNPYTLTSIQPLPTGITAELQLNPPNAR
- Sequence (P23739 1014-1841 limits assumed): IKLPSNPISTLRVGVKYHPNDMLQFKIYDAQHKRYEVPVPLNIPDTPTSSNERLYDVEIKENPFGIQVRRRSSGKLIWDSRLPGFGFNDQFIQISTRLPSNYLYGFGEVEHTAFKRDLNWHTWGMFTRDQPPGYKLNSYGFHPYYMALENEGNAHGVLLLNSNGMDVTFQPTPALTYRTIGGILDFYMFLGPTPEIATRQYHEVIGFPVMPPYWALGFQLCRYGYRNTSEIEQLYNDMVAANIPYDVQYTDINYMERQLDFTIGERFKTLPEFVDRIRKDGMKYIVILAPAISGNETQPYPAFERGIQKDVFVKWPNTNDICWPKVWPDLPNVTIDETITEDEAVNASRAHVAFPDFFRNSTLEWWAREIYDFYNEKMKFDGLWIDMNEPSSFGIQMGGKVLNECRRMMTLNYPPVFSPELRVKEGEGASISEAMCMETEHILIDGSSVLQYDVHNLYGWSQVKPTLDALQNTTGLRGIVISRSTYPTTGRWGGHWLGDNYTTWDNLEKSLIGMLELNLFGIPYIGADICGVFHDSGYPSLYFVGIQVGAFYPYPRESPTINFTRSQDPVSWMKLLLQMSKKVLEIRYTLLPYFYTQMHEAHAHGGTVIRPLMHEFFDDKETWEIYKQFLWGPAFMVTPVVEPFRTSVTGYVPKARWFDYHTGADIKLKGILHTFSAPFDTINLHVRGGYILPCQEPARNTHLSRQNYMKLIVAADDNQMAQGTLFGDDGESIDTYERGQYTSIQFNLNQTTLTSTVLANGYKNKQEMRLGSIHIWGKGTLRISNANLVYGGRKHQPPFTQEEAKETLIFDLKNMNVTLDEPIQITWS
- protocol.notes: Inhibition of rat small intestinal isomaltase after 30 mins
reported.endpoint: IC50 (µM)

Completed entries (count: 3):
O=S(=O)([O-])O[C@H]([C@@H](O)[C@H](O)[C@@H](O)CO)[C@H](O)C[S+]1C[C@@H](O)[C@H](O)[C@H]1CO (stereo not given in full) = 8.5
O=S(=O)([O-])O[C@H]([C@@H](O)[C@@H](O)[C@H](O)CO)[C@H](O)C[S+]1C[C@@H](O)[C@H](O)[C@H]1CO (stereo not given in full) = 16
O=S(=O)([O-])OC[C@H](O)C[S@+]1C[C@@H](O)[C@H](O)[C@H]1CO = 2.6

(I) O=S(=O)([O-])O[C@H]([C@@H](O)[C@H](O)[C@H](O)CO)[C@H](O)C[S+]1C[C@@H](O)[C@H](O)[C@H]1CO (stereo not given in full)
(II) O=S(=O)([O-])O[C@H]([C@@H](O)[C@@H](O)[C@@H](O)CO)[C@H](O)C[S+]1C[C@@H](O)[C@H](O)[C@H]1CO (stereo not given in full)
query: Input pair: I , II . Output: entry with lower IC50. When you have decided, please share the label of that item.
result: I

---

- protocol.notes: Inhibition of rat small intestinal maltase after 30 mins
pIC50: −log10 of the molar value.
reported.endpoint: pIC50

O=S(=O)([O-])O[C@@H]([C@H](O)[C@H](O)[C@@H](O)CO)[C@H](O)C[S+]1C[C@@H](O)[C@H](O)[C@H]1CO (some centres not stated) = 5.14
O=S(=O)([O-])O[C@@H](CO)[C@H](O)C[S@+]1C[C@@H](O)[C@H](O)[C@H]1CO = 5.28

---

- tested.on: Sucrase-isomaltase, intestinal (Rattus norvegicus, UniProt P23739)
- protocol.notes: Inhibition of rat small intestinal sucrase after 30 mins
reported.endpoint: IC50 (µM)

OCC(CO)N[C@H]1C[C@](O)(CO)[C@@H](O)[C@H](O)[C@H]1O [VOGLIBOSE] = 1.2

(I) O=S(=O)([O-])O[C@H]([C@@H](O)[C@@H](O)[C@@H](O)CO)[C@H](O)C[S+]1C[C@@H](O)[C@H](O)[C@H]1CO (some centres not stated)
(II) O=S(=O)([O-])OC[C@H](O)C[S@+]1C[C@@H](O)[C@H](O)[C@H]1CO [SALAPRINOL]
query: Parameter metric = IC50. Return the lower-valued option from I and II . Please reply using the label of the selected record.
result: II
(II: 0.29 µM, I: 23 µM)

---

Each entry below lists one item and its recorded IC50 value.
- tested.on: Sucrase-isomaltase, intestinal (Rattus norvegicus, UniProt P23739)
- protocol.notes: Inhibition of rat small intestinal sucrase after 30 mins

Recorded IC50, per entry:
O=S(=O)([O-])O[C@H]([C@@H](O)[C@H](O)[C@@H](O)CO)[C@H](O)C[S+]1C[C@@H](O)[C@H](O)[C@H]1CO (some centres undefined) = > 236 µM
O=S(=O)([O-])O[C@H]([C@@H](O)[C@H](O)[C@H](O)CO)[C@H](O)C[S+]1C[C@@H](O)[C@H](O)[C@H]1CO (some centres undefined) = > 236 µM

query: For the compound O=S(=O)([O-])O[C@@H]([C@H](O)[C@@H](O)CO)[C@H](O)C[S@+]1C[C@@H](O)[C@H](O)[C@H]1CO [PONKORANOL] , report IC50.
result: > 100 µM

query: Given O=S(=O)([O-])O[C@H]([C@@H](O)[C@@H](O)[C@H](O)CO)[C@H](O)C[S+]1C[C@@H](O)[C@H](O)[C@H]1CO (some centres undefined) , respond with its IC50.
result: > 236 µM
